Numbers sourced from the OPERA property sets (Mansouri et al. 2018).

// assign condition met if log10 vapour pressure (mmHg) falls strictly below -0.2, else condition not met (ties count as condition not met)

{"molecule": "CC(C)(SC(=O)N1CCCCC1)c1ccccc1", "qualitativeLabel": "condition met"}

In the following, a different molecule is considered.
Input: Strictly below -0.2 in log10 vapour pressure (mmHg)? `COS(=O)(=O)OC`
Output: condition not met

* * *

Listing of recorded boiling point by entry.
Report the figure in °C without appending any unit label.

Below: 3 compounds and their reported boiling point.
{"compound": "O=CC1CCCO1 (configuration not stated)", "reportedValue": 142}
{"compound": "COc1ccc2ncccc2c1", "reportedValue": 306}
{"compound": "CC1COCc2cc3c(cc21)C(C)(C)C(C)C3(C)C (configuration not stated)", "reportedValue": 325}

Input: Can you look up the measured boiling point of `CNC(=O)N(C)C` for me?
Output: 232

Input: Quick one: boiling point for `CCCC(C)(C)C(C)=O` ?
Output: 149

Input: Bench note: what boiling point did `FC(F)(F)c1cccc(C(F)(F)F)c1` show?
Output: 116

Input: // query boiling point value for entry `Oc1cccc(Cl)c1Cl`
Output: 206

Input: Entry `OCCOCCOCCO` has what boiling point?
Output: 285

Input: Can you look up the measured boiling point of `Nc1cccc2ccccc12` for me?
Output: 301

* * *

endpointName: melting point (°C)
// units = °C; emit number, no label

Observe how each entry below is paired with its result.
{"molecule": "Cc1cc(-c2ccccc2)nnc1NCCN1CCOCC1", "reportedValue": 122}
{"molecule": "CCCCNC(=O)NS(=O)(=O)c1ccc(C)cc1", "reportedValue": 128}
{"molecule": "C=CP(=O)(O)O", "reportedValue": 43}
{"molecule": "CCc1cc(C(N)=S)ccn1", "reportedValue": 163}
{"molecule": "O=C(Nc1ccccc1)Nc1ccnc(Cl)c1", "reportedValue": 167}

Proceed to the following item.
Input: Entry `Oc1ccc2c3c1O[C@H]1[C@@H](O)C=C[C@H]4[C@H](C2)NCC[C@@]341` : reported melting point = ?
Output: 273

* * *

Listed here: items and their measured melting point.
Answer with a number only, understood to be in °C.

{"compound": "O=C(O)c1cc(Br)cc(Br)c1O", "melting point (°C)": 228}
{"compound": "Cc1ccc(I)cc1", "melting point (°C)": 36.5}

Input: Data request, read-out melting point, for `Cc1c(C2(c3cc(Br)c(O)c(Br)c3C)OS(=O)(=O)c3ccccc32)cc(Br)c(O)c1Br`
Output: 218

Input: melting point lookup needed for `Cc1cccc(F)c1` , thanks.
Output: -87

Input: Give its melting point value. Item: `BrCBr`
Output: -52.5

Input: If you can, please state the reported melting point value of `ICCI` .
Output: 83

Input: Which melting point value belongs to `O=C1CCC(=O)O1` ?
Output: 119

Input: GET /values?readout=melting point&item= `COC(=O)CCCCCC(=O)OC`
Output: -21

Input: What melting point value was documented for this compound, `Nc1ccccc1Cl` ?
Output: -14

* * *

Quick rule: melting point of at least 60 °C means yes, below that means no.

{"molecule": "CCO[Si](c1ccccc1)(c1ccccc1)c1ccccc1", "qualitativeLabel": "yes"}
{"molecule": "CNC(=O)O/N=C(\\C)C(C)S(C)(=O)=O (stereo unspecified)", "qualitativeLabel": "yes"}

Input: Reported melting point reaches at least 60 °C for `CCCc1ccc(O)cc1O` ?
Output: yes

Input: Record CCC1NC(=O)c2cc(S(N)(=O)=O)c(Cl)cc2N1 (stereo unspecified) ; criterion: melting point no lower than 60 °C. Met?
Output: yes

Input: Hi, just wondering whether `C[C@@H]1C[C@H](N(C)C)[C@@H](O)[C@H](O[C@H]2[C@@H](C)C[C@@H](C)C(=O)C=C[C@@H](C)[C@@H]([C@@H](C)O)OC(=O)[C@@H]2C)O1` shows melting point of 60 °C or higher.
Output: yes

Input: Is melting point for `CCCOC(=O)c1ccccc1O` at or above 60 °C?
Output: yes

Input: Confirm if melting point reported for the molecule `C1COCCO1` is 60 °C or above.
Output: no

Input: Assess whether reported melting point for `CN(c1c(Br)cc(Br)cc1Br)c1c([N+](=O)[O-])cc([N+](=O)[O-])cc1C(F)(F)F` sits at 60 °C or higher.
Output: yes

Input: Decide: is the reported value of melting point for `Cc1cc(O)c(C(C)C)cc1C1(c2cc(C(C)C)c(O)cc2C)OC(=O)c2ccccc21` equal to or greater than 60 °C?
Output: yes

Input: Check if melting point >= 60 °C (inclusive). Item: `CCCCCC=O`
Output: no
